Overview of recorded Inhibition of Notch Activation via DLL4 cells, Notch reporter assay for various binders
# TESTED_SYSTEM: mouse DLL4 on cells (mouse, UniProt Q9JI71 27-686)
# Sequence (Q9JI71 27-686): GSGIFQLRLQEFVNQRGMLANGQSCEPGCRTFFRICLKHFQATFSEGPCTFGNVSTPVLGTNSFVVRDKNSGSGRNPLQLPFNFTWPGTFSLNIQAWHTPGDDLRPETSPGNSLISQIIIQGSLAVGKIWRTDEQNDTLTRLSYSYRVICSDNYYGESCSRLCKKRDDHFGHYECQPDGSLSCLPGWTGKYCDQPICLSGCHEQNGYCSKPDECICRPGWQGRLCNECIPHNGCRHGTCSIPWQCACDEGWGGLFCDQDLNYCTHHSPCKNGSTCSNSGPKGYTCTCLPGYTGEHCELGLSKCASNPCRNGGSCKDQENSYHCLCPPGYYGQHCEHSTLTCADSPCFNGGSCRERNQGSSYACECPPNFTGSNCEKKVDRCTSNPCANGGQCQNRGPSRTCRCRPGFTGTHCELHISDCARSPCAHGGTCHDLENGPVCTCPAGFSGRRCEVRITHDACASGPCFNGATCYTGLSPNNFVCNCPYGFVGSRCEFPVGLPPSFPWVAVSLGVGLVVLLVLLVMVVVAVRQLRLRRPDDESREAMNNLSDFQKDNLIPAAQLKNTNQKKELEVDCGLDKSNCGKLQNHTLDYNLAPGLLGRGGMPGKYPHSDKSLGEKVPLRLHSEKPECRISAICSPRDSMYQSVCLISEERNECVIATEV
# MEASUREMENT_DESCRIPTION: cell-based or functional assay
Give just the number in nM; leave the unit off.

Use the examples below as a reference point.
[[record]]
binder = "h1A11.C6 (antibody, V domains shown, also called h1A11.C6 VH / h1A11VL.1) VH: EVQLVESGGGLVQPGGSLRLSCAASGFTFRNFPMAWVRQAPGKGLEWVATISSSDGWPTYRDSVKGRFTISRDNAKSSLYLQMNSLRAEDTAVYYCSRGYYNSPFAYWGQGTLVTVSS VL: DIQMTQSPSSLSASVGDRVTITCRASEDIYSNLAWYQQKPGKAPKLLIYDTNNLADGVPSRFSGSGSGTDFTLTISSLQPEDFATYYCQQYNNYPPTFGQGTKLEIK"
quantity_unit = "nM"
value_measured = 1.19

[[record]]
binder = "h1A11.A11 (antibody, V domains shown, also called h1A11.A11 VH / h1A11VL.1) VH: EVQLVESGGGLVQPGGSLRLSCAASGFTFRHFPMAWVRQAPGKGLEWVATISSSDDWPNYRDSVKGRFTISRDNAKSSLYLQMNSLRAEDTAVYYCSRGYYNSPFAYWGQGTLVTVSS VL: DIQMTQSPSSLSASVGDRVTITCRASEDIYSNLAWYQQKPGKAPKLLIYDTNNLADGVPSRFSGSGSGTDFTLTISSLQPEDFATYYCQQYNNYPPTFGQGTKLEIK"
quantity_unit = "nM"
value_measured = 1.18

[[record]]
binder = "h1A11.E12 (antibody, V domains shown, also called h1A11.E12 VH / h1A11.E12 VL) VH: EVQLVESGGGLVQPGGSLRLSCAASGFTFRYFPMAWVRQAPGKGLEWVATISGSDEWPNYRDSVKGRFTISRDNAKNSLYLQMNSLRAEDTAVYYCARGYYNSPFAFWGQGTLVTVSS VL: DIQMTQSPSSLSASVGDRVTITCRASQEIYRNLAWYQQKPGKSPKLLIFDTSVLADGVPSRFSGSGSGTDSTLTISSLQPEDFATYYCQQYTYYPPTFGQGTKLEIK"
quantity_unit = "nM"
value_measured = 0.266


Record summary for h1A11.B4 (antibody, V domains shown, also called h1A11VH.1 / h1A11.B4 VL) VH: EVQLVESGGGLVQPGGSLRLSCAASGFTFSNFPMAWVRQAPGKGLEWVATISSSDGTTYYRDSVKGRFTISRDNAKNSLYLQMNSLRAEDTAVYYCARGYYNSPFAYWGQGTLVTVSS VL: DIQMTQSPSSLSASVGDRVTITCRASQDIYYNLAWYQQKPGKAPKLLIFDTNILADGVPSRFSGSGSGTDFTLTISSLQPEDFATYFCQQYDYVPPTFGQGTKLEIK : reported Inhibition of Notch Activation via DLL4 cells, Notch reporter assay = 1.08
